Taken from PubChem BioAssay AID777.

Tested Target: Cytochrome P450 2C9 (Homo sapiens) (UniProt P11712)
Sequence (P11712 whole entry, looked up): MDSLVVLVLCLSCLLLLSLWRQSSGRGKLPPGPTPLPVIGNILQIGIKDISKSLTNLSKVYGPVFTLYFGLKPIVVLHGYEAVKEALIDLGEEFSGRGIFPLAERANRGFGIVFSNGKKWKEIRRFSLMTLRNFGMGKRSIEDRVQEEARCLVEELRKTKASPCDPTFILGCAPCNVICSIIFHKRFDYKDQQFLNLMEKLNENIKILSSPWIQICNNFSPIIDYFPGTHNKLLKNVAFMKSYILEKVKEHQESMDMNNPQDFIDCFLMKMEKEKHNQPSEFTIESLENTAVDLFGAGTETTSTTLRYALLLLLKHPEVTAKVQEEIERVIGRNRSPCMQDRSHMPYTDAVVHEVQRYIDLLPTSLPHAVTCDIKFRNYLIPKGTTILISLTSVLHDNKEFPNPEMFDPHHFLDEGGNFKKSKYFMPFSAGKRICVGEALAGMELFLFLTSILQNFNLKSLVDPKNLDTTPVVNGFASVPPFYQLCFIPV
Protocol Notes: blockers of cytochrome P450 2C9 activity – biochemical, luminescence, ADME assay, primary screen (AID 777)
Conditions Used: CYP2C9 Supersomes, luciferin-H conversion, at 5 µM, hits give high values
Among all 96,000 compounds or so, about 19,000 (20%) were called active. A selection follows.
Consider the following molecules; for each one, report its inhibition.

Given the molecule "O=C(Oc1ccc(-c2nc(-c3ccccn3)no2)cc1)c1ccccc1" , what is its reported inhibition?
87.2% (active)

Try this molecule next: "O=C1COc2ccc(NC(=O)N3CCN(c4ccc(F)cc4)CC3)cc2N1"
19.5% (inactive)

Try this molecule next: "O=C1/C(=C\Nc2ccccc2)CCN1c1ncccn1"
3.1% (inactive)

Try this molecule next: CC(=O)C1C(c2ccc(Cl)cc2)NC(=O)NC1(O)C(F)(F)F (configuration not stated)
-9.5% (inactive)

Try this molecule next: "CCOc1ccc2nc(NCCNS(=O)(=O)c3ccccc3)c(C#N)cc2c1"
22.2% (inactive)

Try this molecule next: "CCOc1ccc2nc(N3CCCN(C(=O)Nc4ccccc4C)CC3)c(C#N)cc2c1"
98.1% (active)

Try this molecule next: "CCOc1[nH]n(-c2ccc(Cl)cc2)c(=O)c1C=Nc1ccc(O)cc1"
37% (inactive)

Try this molecule next: "O=C(CCCN1C(=O)CSc2ncccc21)N1CCN(c2cccc(C(F)(F)F)c2)CC1"
31.1% (inactive)

Try this molecule next: "CCOc1ccc2cc(C#N)c(SCC(=O)OC)nc2c1"
21.4% (inactive)

Try this molecule next: "CC1=Nn2c(nnc2-c2ccccc2)SC1"
-4.9% (inactive)

Try this molecule next: "CCOC(=O)c1cc2cc(-c3c(C(=O)OCC)oc4cc(O)cc(O)c4c3=O)ccc2o1"
93.1% (active)

Try this molecule next: COc1ccc(OC)c(C(c2nnnn2C(C)(C)C)N2CCc3ccccc3C2)c1 (configuration not stated)
98.9% (active)

Try this molecule next: "N#Cc1ccc(-c2ccc(F)cc2)nc1Sc1ccccc1"
13.2% (inactive)

Try this molecule next: "CCOc1ccc(C(C)C)cc1S(=O)(=O)n1nc(C)cc1C"
91.3% (active)

Try this molecule next: "CC(C)c1nc(-c2ccccn2)no1"
3.9% (inactive)

Try this molecule next: "CCCOC(=O)c1cc2ccccc2oc1=O"
-7.6% (inactive)

Try this molecule next: "CCc1ccc(/C=N/NC(=O)c2ccc(OC3CCCC3)cc2)s1"
-41.1% (inactive)
